Origin of values: ChEMBL document CHEMBL4308888

# target-or-system: [Pyruvate dehydrogenase (acetyl-transferring)] kinase isozyme 1, mitochondrial (Homo sapiens, UniProt Q15118)
# Sequence (Q15118 whole entry): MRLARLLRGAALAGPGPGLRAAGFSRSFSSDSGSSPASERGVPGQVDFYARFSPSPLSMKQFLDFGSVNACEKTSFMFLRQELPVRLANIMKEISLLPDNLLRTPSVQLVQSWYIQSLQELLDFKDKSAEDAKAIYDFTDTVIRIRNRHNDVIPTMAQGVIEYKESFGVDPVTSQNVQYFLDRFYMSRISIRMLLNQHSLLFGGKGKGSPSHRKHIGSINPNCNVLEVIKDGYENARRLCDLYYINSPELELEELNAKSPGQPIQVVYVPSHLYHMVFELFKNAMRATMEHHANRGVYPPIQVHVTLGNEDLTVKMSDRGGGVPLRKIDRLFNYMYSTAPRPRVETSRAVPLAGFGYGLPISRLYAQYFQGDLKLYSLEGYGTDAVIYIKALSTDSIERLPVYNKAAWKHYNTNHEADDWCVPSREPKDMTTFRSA
pKd: recorded values
Note: pKd values are expressed as the negative base-10 logarithm of concentration in M.

Solved cases below.
chemical-smiles: CN(Cc1cnc2ccccn12)C(=O)c1cc(COc2ccc3c(c2)OCO3)[nH]n1
observed-result: 5.96
--
chemical-smiles: CC(C)=CCN1CCN(Cc2c(C)n(C)n(-c3ccccc3)c2=O)C[C@@H]1CCO
observed-result: 4.98
--
chemical-smiles: OCCn1nc(C2CCOCC2)nc1[C@@H]1CCCCN1Cc1ccccc1
observed-result: 6.05

The molecule `CCCCN(Cc1ccncc1)C(=O)c1cc(-c2ccccc2O)n[nH]1` showed pKd equal to 5.24

###

# target-or-system: [Pyruvate dehydrogenase (acetyl-transferring)] kinase isozyme 3, mitochondrial (Homo sapiens)
# Sequence (Q15120 whole entry): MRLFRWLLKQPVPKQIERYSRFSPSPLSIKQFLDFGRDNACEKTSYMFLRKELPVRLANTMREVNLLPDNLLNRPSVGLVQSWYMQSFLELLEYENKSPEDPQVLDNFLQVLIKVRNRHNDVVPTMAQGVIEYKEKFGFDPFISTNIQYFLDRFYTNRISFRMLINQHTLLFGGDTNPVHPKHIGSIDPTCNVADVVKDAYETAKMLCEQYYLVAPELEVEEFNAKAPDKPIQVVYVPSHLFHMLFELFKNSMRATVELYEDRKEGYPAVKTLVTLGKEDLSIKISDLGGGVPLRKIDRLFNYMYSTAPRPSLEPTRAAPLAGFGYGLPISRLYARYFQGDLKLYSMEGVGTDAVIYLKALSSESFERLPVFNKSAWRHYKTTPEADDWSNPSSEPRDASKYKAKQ
Kd: recorded values
Give a bare numeral; the unit µM is implied.

Solved cases below.
chemical-smiles: OCCn1nc(C2CCOCC2)nc1[C@@H]1CCCCN1Cc1ccccc1
Kd [µM]: 2.1
--
chemical-smiles: CCCCN(Cc1ccncc1)C(=O)c1cc(-c2ccccc2O)n[nH]1
Kd [µM]: 7.8
--
chemical-smiles: CC(C)=CCN1CCN(Cc2c(C)n(C)n(-c3ccccc3)c2=O)C[C@@H]1CCO
Kd [µM]: 8.9

The compound `CN(Cc1cnc2ccccn12)C(=O)c1cc(COc2ccc3c(c2)OCO3)[nH]n1` showed Kd equal to 4.7

###

inhibition: recorded values
# target-or-system: [Pyruvate dehydrogenase (acetyl-transferring)] kinase isozyme 1, mitochondrial (Homo sapiens, UniProt Q15118)
# assay-details: Inhibition of PDK1 (unknown origin) at 10 uM using PDH E1 as substrate measured after 30 mins by kinase-glo assay relative to control
Give a bare numeral; the unit % is implied.

Solved cases below.
chemical-smiles: CN(Cc1cnc2ccccn12)C(=O)c1cc(COc2ccc3c(c2)OCO3)[nH]n1
inhibition / %: 95.6

chemical-smiles: CC(C)=CCN1CCN(Cc2c(C)n(C)n(-c3ccccc3)c2=O)C[C@@H]1CCO
inhibition / %: 86.9

chemical-smiles: OCCn1nc(C2CCOCC2)nc1[C@@H]1CCCCN1Cc1ccccc1
inhibition / %: 93.7

Would you kindly look at the next entry?
The molecule `CCCCN(Cc1ccncc1)C(=O)c1cc(-c2ccccc2O)n[nH]1` showed inhibition equal to 89.6

###

# System: NCI-H1975
# assay-details: Antiproliferative activity against human NCI-H1975 cells assessed as reduction in cell viability after 72 hrs by MTT assay
# Format: functional, cell-based
# measurement-context: NCI-H1975, 72 h
endpoint: pIC50
Note: pIC50 values are expressed as the negative base-10 logarithm of concentration in M.

The compound `OCCn1nc(C2CCOCC2)nc1[C@@H]1CCCCN1Cc1ccccc1` showed pIC50 equal to 5.48

###

# target-or-system: [Pyruvate dehydrogenase (acetyl-transferring)] kinase isozyme 2, mitochondrial (Homo sapiens)
pKd: recorded values
Note: pKd values are expressed as the negative base-10 logarithm of concentration in M.

chemical-smiles: OCCn1nc(C2CCOCC2)nc1[C@@H]1CCCCN1Cc1ccccc1
pKd: 5.43
//
chemical-smiles: CN(Cc1cnc2ccccn12)C(=O)c1cc(COc2ccc3c(c2)OCO3)[nH]n1
pKd: 5.70
//
chemical-smiles: CC(C)=CCN1CCN(Cc2c(C)n(C)n(-c3ccccc3)c2=O)C[C@@H]1CCO
pKd: 4.80

Would you kindly look at the next entry?
The molecule `CCCCN(Cc1ccncc1)C(=O)c1cc(-c2ccccc2O)n[nH]1` showed pKd equal to 5.54
